Target: hFP (Homo sapiens)
Construct: expressed in transfected cells; host or cells: HEK-293(EBNA)
Sequence (P43088 whole entry): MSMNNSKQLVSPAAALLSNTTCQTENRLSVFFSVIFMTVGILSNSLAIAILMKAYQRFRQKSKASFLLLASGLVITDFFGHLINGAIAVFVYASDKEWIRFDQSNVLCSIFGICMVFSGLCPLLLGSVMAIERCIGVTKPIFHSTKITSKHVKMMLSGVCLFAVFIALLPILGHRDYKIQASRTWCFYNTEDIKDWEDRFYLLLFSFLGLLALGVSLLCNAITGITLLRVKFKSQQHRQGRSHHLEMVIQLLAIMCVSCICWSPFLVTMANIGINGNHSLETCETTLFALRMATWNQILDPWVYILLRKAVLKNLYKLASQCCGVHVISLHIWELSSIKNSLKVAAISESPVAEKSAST
Assay: FLIPR calcium signal, hFP
Assay type: cell-based
Settings: read-out: Other Receptors (EC50 in nM) hFP
READOUT_TYPE: EC50

For record "O=C(O)c1ccc(CCC[C@@H]2[C@@H](CCc3cc(Cl)cc(Cl)c3)[C@@H](O)C[C@H]2Cl)s1" the listed EC50 is > 10000 nM

----------
Task for the reader: assign each of the following compounds its reported pEC50.
Target: hEP4/Gqs5 (Homo sapiens, UniProt P35408)
Sequence (P35408 whole entry): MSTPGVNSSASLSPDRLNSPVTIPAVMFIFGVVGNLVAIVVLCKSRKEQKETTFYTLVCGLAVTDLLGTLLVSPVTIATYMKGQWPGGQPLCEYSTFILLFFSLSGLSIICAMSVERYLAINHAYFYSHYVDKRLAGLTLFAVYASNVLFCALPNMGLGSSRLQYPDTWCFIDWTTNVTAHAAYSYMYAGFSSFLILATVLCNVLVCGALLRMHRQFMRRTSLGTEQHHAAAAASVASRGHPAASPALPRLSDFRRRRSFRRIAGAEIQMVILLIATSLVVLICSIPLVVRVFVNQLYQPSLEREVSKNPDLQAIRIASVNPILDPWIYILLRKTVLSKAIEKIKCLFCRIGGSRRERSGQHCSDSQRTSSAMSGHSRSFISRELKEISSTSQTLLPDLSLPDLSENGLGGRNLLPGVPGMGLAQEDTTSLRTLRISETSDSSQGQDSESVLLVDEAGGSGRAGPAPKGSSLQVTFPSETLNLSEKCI
Assay: FLIPR calcium signal, EP4
Conditions: HEK-293(EBNA) cells
pEC50: −log10 of the molar value.

// known answers, use as guide
O=C(O)c1ccc(CCC[C@@H]2[C@@H](CCc3cc(Cl)nc(Cl)c3)[C@H](O)C[C@H]2Cl)s1 [11b]: < 5.00
O=C(O)c1ccc(CCC[C@@H]2[C@@H](CCc3cc(Cl)cc(Cl)c3)[C@H](O)C[C@H]2Cl)s1 [11a]: < 5.00
O=C(O)c1ccc(CCC[C@@H]2[C@@H](CCc3cc(F)cc(F)c3)[C@H](O)C[C@H]2Cl)s1 [11d]: < 5.00
Cc1cc(C)cc(CC[C@@H]2[C@@H](CCCc3ccc(C(=O)O)s3)[C@H](Cl)C[C@H]2O)c1 [11e]: < 5.00
O=C(O)CCCCCC[C@@H]1[C@@H](CCc2cc(Cl)cc(Cl)c2)[C@H](O)C[C@H]1Cl: 4.99

We now examine a further compound.
Value of measured pEC50 for the entry O=C(O)c1ccc(CCC[C@@H]2[C@@H](CCc3cc(Cl)cc(CO)c3)[C@H](O)C[C@H]2Cl)s1 [11c] : < 5.00
